The origin of these recorded values is patent US11897862B2.

Target: IKZF2 (Homo sapiens, UniProt Q96SW2+Q9UKS7)
Sequence (Q9UKS7 whole entry): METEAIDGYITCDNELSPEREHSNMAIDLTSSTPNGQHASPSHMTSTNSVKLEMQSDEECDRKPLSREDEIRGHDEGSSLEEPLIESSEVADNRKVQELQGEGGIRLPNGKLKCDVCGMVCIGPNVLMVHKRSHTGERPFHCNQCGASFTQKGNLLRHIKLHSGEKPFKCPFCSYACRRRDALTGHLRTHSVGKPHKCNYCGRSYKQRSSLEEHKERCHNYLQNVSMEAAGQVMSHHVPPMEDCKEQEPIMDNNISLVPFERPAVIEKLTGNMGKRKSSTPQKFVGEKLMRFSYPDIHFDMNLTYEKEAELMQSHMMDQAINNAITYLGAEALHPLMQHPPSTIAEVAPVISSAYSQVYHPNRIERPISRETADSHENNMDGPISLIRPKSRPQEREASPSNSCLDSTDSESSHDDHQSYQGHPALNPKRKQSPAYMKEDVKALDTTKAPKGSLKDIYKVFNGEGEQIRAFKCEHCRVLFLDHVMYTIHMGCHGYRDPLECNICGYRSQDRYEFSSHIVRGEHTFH
Sequence (Q96SW2 whole entry): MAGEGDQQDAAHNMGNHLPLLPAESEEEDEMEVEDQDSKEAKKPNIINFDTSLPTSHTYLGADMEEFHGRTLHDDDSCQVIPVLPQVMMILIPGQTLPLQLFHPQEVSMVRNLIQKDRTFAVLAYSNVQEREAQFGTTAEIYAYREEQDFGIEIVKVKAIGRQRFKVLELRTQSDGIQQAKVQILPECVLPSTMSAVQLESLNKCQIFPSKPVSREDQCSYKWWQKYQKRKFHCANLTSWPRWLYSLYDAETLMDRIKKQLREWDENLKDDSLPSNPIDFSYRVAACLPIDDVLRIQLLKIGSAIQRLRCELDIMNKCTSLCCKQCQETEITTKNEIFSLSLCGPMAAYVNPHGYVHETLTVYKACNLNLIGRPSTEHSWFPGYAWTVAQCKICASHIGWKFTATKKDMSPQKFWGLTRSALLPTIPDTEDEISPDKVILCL
Sequence (Q16531 whole entry partner): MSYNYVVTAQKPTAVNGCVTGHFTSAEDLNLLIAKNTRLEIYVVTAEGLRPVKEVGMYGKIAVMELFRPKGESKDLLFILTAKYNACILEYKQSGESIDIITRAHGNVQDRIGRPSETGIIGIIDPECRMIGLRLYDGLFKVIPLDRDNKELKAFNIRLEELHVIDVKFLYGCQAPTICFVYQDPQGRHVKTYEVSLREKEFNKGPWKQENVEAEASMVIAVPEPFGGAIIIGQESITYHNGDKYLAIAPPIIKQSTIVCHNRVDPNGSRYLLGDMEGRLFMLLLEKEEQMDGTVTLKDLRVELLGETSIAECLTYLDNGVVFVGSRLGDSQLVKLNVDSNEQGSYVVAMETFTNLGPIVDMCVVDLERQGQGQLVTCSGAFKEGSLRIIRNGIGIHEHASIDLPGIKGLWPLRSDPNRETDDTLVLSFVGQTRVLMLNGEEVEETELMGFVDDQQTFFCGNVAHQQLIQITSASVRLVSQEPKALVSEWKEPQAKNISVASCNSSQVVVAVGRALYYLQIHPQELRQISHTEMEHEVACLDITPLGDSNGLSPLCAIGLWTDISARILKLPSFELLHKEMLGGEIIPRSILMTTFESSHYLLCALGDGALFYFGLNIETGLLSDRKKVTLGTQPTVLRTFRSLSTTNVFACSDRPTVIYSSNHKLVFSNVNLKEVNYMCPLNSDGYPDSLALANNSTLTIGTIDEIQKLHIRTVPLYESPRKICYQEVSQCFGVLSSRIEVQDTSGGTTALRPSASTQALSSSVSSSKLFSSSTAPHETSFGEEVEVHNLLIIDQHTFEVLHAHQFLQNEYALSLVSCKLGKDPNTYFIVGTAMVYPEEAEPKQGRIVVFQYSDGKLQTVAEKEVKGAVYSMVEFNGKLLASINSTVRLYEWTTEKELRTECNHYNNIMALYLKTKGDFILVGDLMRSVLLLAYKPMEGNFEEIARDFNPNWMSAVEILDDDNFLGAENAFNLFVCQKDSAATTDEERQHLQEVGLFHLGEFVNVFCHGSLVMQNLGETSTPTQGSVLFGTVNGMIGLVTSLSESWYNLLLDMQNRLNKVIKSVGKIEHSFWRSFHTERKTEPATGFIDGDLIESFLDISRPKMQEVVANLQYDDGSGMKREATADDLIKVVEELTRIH
Test: Human whole blood IKZF2 degradation (flow cytometry, CD4/CD25/Foxp3+ Treg cells)
Type: cell-based
Design: endogenous in cells
Settings: 24 hrs incubation, IKZF2 MFI in CD4/CD25/Foxp3+ Treg cells, flow cytometry
result-type: Dmax (%)
Answer in %, number only, no unit symbol.

[[record]]
molecule = "O=C1CCC(N2Cc3c(ccc(C[C@H]4OCCC[C@@H]4NC4CCCC4)c3F)C2=O)C(=O)N1 (stereo partly shown)"
value_observed = 92

[[record]]
molecule = "O=C1CCC(N2Cc3cc(C4CCC(Cc5ccccc5)CC4)ccc3C2=O)C(=O)N1 (stereo not shown)"
value_observed = 82

[[record]]
molecule = "O=C1CCC(N2Cc3c(ccc(C[C@H]4CCCC[C@@H]4NC4CCOC4)c3F)C2=O)C(=O)N1 (stereo partly shown)"
value_observed = 92

[[record]]
molecule = "CC(C)N[C@H]1CCCC[C@@H]1Cc1ccc2c(c1F)CN(C1CCC(=O)NC1=O)C2=O (stereo partly shown)"
value_observed = 96

[[record]]
molecule = "CC(N[C@H]1CCCC[C@@H]1Cc1ccc2c(c1F)CN(C1CCC(=O)NC1=O)C2=O)C1CCOCC1 (single isomer, unassigned)"
value_observed = 92


IKZF2 (Homo sapiens, UniProt Q96SW2+Q9UKS7) / Dmax / O=C1CCC(N2Cc3cc(C[C@H]4CCCC[C@@H]4NC4CC5CC5C4)ccc3C2=O)C(=O)N1 (single isomer, unassigned) : value?
98

Form: Entry = CC(N[C@H]1CCCC[C@@H]1Cc1ccc2c(c1)CN(C1CCC(=O)NC1=O)C2=O)C1(C#N)CC1 (single isomer, unassigned) | System = IKZF2 (Homo sapiens, UniProt Q96SW2+Q9UKS7) | Dmax = ____
95

Requested read-out Dmax, target or system IKZF2 (Homo sapiens, UniProt Q96SW2+Q9UKS7), entry O=C1CCC(N2Cc3cc(C[C@H]4CCCC[C@@H]4NC4CCC5(CC4)CC5)ccc3C2=O)C(=O)N1 (stereo partly shown)
99

Please tell me: Dmax of CC1(C)CC(N[C@H]2CCCC[C@@H]2Cc2ccc3c(c2)CN(C2CCC(=O)NC2=O)C3=O)CC(C)(C)O1 (stereo partly shown) , system IKZF2 (Homo sapiens, UniProt Q96SW2+Q9UKS7)?
97

API: value(readout= Dmax, system= IKZF2 (Homo sapiens, UniProt Q96SW2+Q9UKS7), query= O=C1CCC(N2Cc3c(ccc(C[C@H]4CCCC[C@@H]4NC4CCOCC4)c3F)C2=O)C(=O)N1 (stereo partly shown) )
89

IKZF2 (Homo sapiens, UniProt Q96SW2+Q9UKS7) / Dmax / CC(N[C@H]1CCCO[C@@H]1Cc1ccc2c(c1F)CN(C1CCC(=O)NC1=O)C2=O)C1CCOCC1 (single isomer, unassigned) : value?
96

Quick check: Dmax on IKZF2 (Homo sapiens, UniProt Q96SW2+Q9UKS7), item O=C1CCC(N2Cc3cc(C[C@H]4CCCC[C@@H]4NC4CCC(OC(F)(F)F)CC4)ccc3C2=O)C(=O)N1 (single isomer, unassigned) ?
100

Enter reported Dmax observed with IKZF2 (Homo sapiens, UniProt Q96SW2+Q9UKS7) for O=C1CCC(N2Cc3c(ccc(C[C@H]4OCCC[C@@H]4NC4CCOCC4)c3F)C2=O)C(=O)N1 (stereo partly shown)
95

Query the reported Dmax for IKZF2 (Homo sapiens, UniProt Q96SW2+Q9UKS7); item: CC(C)CCN[C@H]1CCCC[C@@H]1Cc1ccc2c(c1)CN(C1CCC(=O)NC1=O)C2=O (stereo partly shown)
91
